Test system: TEAD3 (Homo sapiens, UniProt Q99594)
Sequence (Q99594 whole entry, species assumed): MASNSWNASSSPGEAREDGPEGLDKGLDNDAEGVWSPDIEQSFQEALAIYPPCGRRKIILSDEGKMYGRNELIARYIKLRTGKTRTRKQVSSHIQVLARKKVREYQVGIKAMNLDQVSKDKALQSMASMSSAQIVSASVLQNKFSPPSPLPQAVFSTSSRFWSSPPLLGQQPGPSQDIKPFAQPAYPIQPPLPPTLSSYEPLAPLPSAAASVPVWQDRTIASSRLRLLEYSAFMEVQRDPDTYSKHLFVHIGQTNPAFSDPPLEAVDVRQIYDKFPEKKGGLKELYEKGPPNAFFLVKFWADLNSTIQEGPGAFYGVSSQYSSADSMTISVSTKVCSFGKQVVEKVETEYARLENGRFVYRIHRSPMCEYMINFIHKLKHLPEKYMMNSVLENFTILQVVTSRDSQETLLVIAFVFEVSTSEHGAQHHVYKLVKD
Method summary: Thermal shift assay TEAD3
Assay type: binding
Measurement name: TEAD3 ΔTm

Take a look at these entries with their results.
# Molecule, TEAD3 ΔTm
rows = [
    ("Cn1cc2cc(Oc3ccc(C(F)(F)F)cc3)cc([C@@H]3C[C@H]3C(=O)N3CC(C#N)C3)c2n1 (single isomer, unassigned)", "7.0 °C"),
    ("Cn1cc2nc(Oc3ccc(C(F)(F)F)cc3)cc([C@@H]3C[C@H]3C(=O)N3C[C@H]4C[C@@H]3CO4)c2n1 (single isomer, unassigned)", "1.6 °C"),
    ("CN(C)C(=O)[C@@H]1CC1c1cc(-c2ccc(C(F)(F)F)cc2)cc2c1cnn2C (mixture of isomers)", "0.1 °C"),
]

What value of measured TEAD3 ΔTm is listed for Cn1cc2cc(Oc3ccc(C(F)(F)F)cc3)cc([C@@H]3C[C@H]3C(=O)N3CC[C@@H](O)[C@H](O)C3)c2n1 (single isomer, unassigned) [Example 75b] ?
10.1 °C

What value of measured TEAD3 ΔTm is listed for CN1CCC2(CN(C(=O)[C@@H]3CC3c3cc(Oc4ccc(C(F)(F)F)cc4)cc4cn(C)nc34)C2)C1=O (single isomer, unassigned) ?
1.3 °C

What value of measured TEAD3 ΔTm is listed for Cn1cc2cc(Oc3ccc(C(F)(F)F)cc3)cc([C@H]3C[C@@H]3C(=O)N3CC(O)C3)c2n1 (single isomer, unassigned) [Example 58b] ?
10.9 °C

What value of measured TEAD3 ΔTm is listed for Cn1cc2cc(Oc3ccc(C(F)(F)F)cc3)cc(C3C[C@H]3C(=O)N3CC4CC3[C@H](O)[C@H]4O)c2n1 (single isomer, unassigned) ?
2.2 °C

What value of measured TEAD3 ΔTm is listed for CNC(=O)[C@@H]1CC1c1cc(Oc2ccc(C(F)(F)F)cc2)cc2c1cnn2C (mixture of isomers) ?
4.6 °C

What value of measured TEAD3 ΔTm is listed for Cn1cc2cc(-c3ccc(C(F)(F)F)cc3)cc(C3C[C@H]3C(=O)O)c2n1 (mixture of isomers) ?
2.7 °C

What value of measured TEAD3 ΔTm is listed for C[C@@H](CO)NC(=O)[C@@H]1CC1c1cc(Oc2ccc(C(F)(F)F)cc2)cc2cn(C)nc12 (single isomer, unassigned) ?
1.2 °C

What value of measured TEAD3 ΔTm is listed for CNC(=O)[C@@H]1C[C@H]1c1cc(-c2ccc(C(F)(F)F)cc2)cc2c1cnn2C(F)F (racemic) ?
0.2 °C

What value of measured TEAD3 ΔTm is listed for Cn1cc2cc(Oc3ccc(C(F)(F)F)cc3)cc([C@@H]3C[C@H]3C(=O)N[C@@H](CO)c3ccccn3)c2n1 (single isomer, unassigned) [Example 59b] ?
13.1 °C

Data origin, for the record: patent US12103915B2
